- Test settings: in acetic acid, 316.15 K
Quantity: solubility (mole fraction)

Query: Please report the recorded solubility (mole fraction) for Cc1cc(C#N)c(Nc2ccccc2[N+](=O)[O-])s1 .
Reply: 0.0127

====

- Test settings: in acetic acid, 302.15 K
Quantity: solubility (mole fraction)
Please state the value as a number alone, without comment.

Query: Please report the recorded solubility (mole fraction) for Cc1cc(C#N)c(Nc2ccccc2[N+](=O)[O-])s1 .
Reply: 0.00725

====

- Test settings: in methanol, 306.15 K
Quantity: solubility (mole fraction)
Please state the value as a number alone, without comment.

Query: Please report the recorded solubility (mole fraction) for Cc1cc(C#N)c(Nc2ccccc2[N+](=O)[O-])s1 .
Reply: 0.00233

====

- Test settings: in DMSO, 332.15 K
Quantity: solubility (mole fraction)

Query: Please report the recorded solubility (mole fraction) for Cc1cc(C#N)c(Nc2ccccc2[N+](=O)[O-])s1 .
Reply: 0.135

====

- Test settings: in acetone, 316.15 K
Quantity: solubility (mole fraction)
Please state the value as a number alone, without comment.

Query: Please report the recorded solubility (mole fraction) for Cc1cc(C#N)c(Nc2ccccc2[N+](=O)[O-])s1 .
Reply: 0.0604

====

- Test settings: in methanol, 320.15 K
Quantity: solubility (mole fraction)
Please state the value as a number alone, without comment.

Query: Please report the recorded solubility (mole fraction) for Cc1cc(C#N)c(Nc2ccccc2[N+](=O)[O-])s1 .
Reply: 0.00464

====

- Test settings: in ethanol, 311.15 K
Quantity: solubility (mole fraction)
Please state the value as a number alone, without comment.

Query: Please report the recorded solubility (mole fraction) for Cc1cc(C#N)c(Nc2ccccc2[N+](=O)[O-])s1 .
Reply: 0.00274

====

- Test settings: in ethanol, 296.15 K
Quantity: solubility (mole fraction)
Please state the value as a number alone, without comment.

Query: Please report the recorded solubility (mole fraction) for Cc1cc(C#N)c(Nc2ccccc2[N+](=O)[O-])s1 .
Reply: 0.00131

====

- Test settings: in DMSO, 306.15 K
Quantity: solubility (mole fraction)
Please state the value as a number alone, without comment.

Query: Please report the recorded solubility (mole fraction) for Cc1cc(C#N)c(Nc2ccccc2[N+](=O)[O-])s1 .
Reply: 0.0734

====

- Test settings: in acetic acid, 297.15 K
Quantity: solubility (mole fraction)
Please state the value as a number alone, without comment.

Query: Please report the recorded solubility (mole fraction) for Cc1cc(C#N)c(Nc2ccccc2[N+](=O)[O-])s1 .
Reply: 0.00588

====

- Test settings: in ethyl acetate, 302.15 K
Quantity: solubility (mole fraction)

Query: Please report the recorded solubility (mole fraction) for Cc1cc(C#N)c(Nc2ccccc2[N+](=O)[O-])s1 .
Reply: 0.0255

====

- Test settings: in ethyl acetate, 320.15 K
Quantity: solubility (mole fraction)
Please state the value as a number alone, without comment.

Query: Please report the recorded solubility (mole fraction) for Cc1cc(C#N)c(Nc2ccccc2[N+](=O)[O-])s1 .
Reply: 0.0494

====

- Test settings: in acetone, 296.15 K
Quantity: solubility (mole fraction)
Please state the value as a number alone, without comment.

Query: Please report the recorded solubility (mole fraction) for Cc1cc(C#N)c(Nc2ccccc2[N+](=O)[O-])s1 .
Reply: 0.0322

====

- Test settings: in DMSO, 292.15 K
Quantity: solubility (mole fraction)

Query: Please report the recorded solubility (mole fraction) for Cc1cc(C#N)c(Nc2ccccc2[N+](=O)[O-])s1 .
Reply: 0.0519

====

- Test settings: in acetic acid, 311.15 K
Quantity: solubility (mole fraction)
Please state the value as a number alone, without comment.

Query: Please report the recorded solubility (mole fraction) for Cc1cc(C#N)c(Nc2ccccc2[N+](=O)[O-])s1 .
Reply: 0.0109

====

- Test settings: in DMSO, 310.15 K
Quantity: solubility (mole fraction)
Please state the value as a number alone, without comment.

Query: Please report the recorded solubility (mole fraction) for Cc1cc(C#N)c(Nc2ccccc2[N+](=O)[O-])s1 .
Reply: 0.0801

====

- Test settings: in methanol, 302.15 K
Quantity: solubility (mole fraction)
Please state the value as a number alone, without comment.

Query: Please report the recorded solubility (mole fraction) for Cc1cc(C#N)c(Nc2ccccc2[N+](=O)[O-])s1 .
Reply: 0.00186

====

- Test settings: in ethyl acetate, 311.15 K
Quantity: solubility (mole fraction)

Query: Please report the recorded solubility (mole fraction) for Cc1cc(C#N)c(Nc2ccccc2[N+](=O)[O-])s1 .
Reply: 0.0379
